Just for reference, PubChem BioAssay (NCATS) is where these values come from.

System: PA-1
Experiment: Primary qHTS to identify gynecologic anti-cancer compounds using libraries of approved drugs and bioactive compounds (AID 1345084); note: nearly all actives have a fitted effect of over 55% in size
Details: Gynecologic cancer cell panel viability, ATPlite luminescence, 48 h; series mostly up to 57.5 µM
Records with an inconclusive call do not appear. Activity calls are given as the source filed them. Calls come from the whole dose curve; as a rule, active = well fitted cell-killing curve with a large enough effect; inconclusive = small, poorly fitted or top-dose-only effect, or effect the other way; inactive = flat fitted curve, though single readings scatter.
Can you answer with just one of these options? label 1 (active), label 0 (inactive)

Could you please tell me the result logged for CC(C)(C)NC(=O)[C@@H](c1cccnc1)N(C(=O)c1ccco1)c1ccc(C(C)(C)C)cc1 in this assay? label 0

Could you please tell me the result logged for O=C(O)/C=C/c1cc2c(cc1O[C@@H]1O[C@H](CO)[C@@H](O)[C@H](O)[C@H]1O)OCO2 in this assay? label 0

Could you please tell me the result logged for Cc1onc(C(=O)N2CCN(C(c3ccc(Cl)cc3)c3ccc(Cl)cc3)CC2)c1[N+](=O)[O-] in this assay? label 1

Could you please tell me the result logged for OC[C@@]1(O)CO[C@@H](OC[C@H]2O[C@@H](Oc3c[nH]c4ccccc34)[C@H](O)[C@@H](O)[C@@H]2O)[C@@H]1O in this assay? label 0

Could you please tell me the result logged for O=C(N/N=C/c1ccc(O)c(O)c1)c1cc2ccccc2cc1O in this assay? label 0

Could you please tell me the result logged for C[C@@H]1O[C@@H](O[C@H]2[C@@H]3C=CO[C@@H](O[C@@H]4O[C@H](CO)[C@@H](O)[C@H](O)[C@H]4O)[C@@H]3[C@@]3(CO)O[C@@H]23)[C@H](OC(=O)/C=C/c2ccc(O)c(O)c2)[C@H](O)[C@H]1O in this assay? label 0

Could you please tell me the result logged for CC1(C)CC[C@]2(C(=O)O)CC[C@]3(C)C(=CCC4[C@@]5(C)CC[C@H](O[C@@H]6O[C@H](CO)[C@@H](O)[C@H](O)[C@H]6O[C@@H]6O[C@H](CO)[C@@H](O)[C@H](O)[C@H]6O)[C@@](C)(CO)C5CC[C@]43C)[C@@H]2C1 (stereo not given in full) in this assay? label 0

Could you please tell me the result logged for COc1ccccc1Oc1ccc(N(Cc2cccnc2)S(=O)(=O)CC(F)(F)F)cc1 in this assay? label 0

Could you please tell me the result logged for COc1cc(OC)cc(C(=O)Nc2ccc(Cl)c(-c3nc4ccc(N(C)C)cc4[nH]3)c2)c1 in this assay? label 0

Could you please tell me the result logged for CC[C@]1(O)CC2CN(CCc3c([nH]c4ccccc34)[C@@](C(=O)OC)(c3cc4c(cc3OC)N(C=O)[C@H]3[C@@](O)(C(=O)OC)[C@H](OC(C)=O)[C@]5(CC)C=CCN6CC[C@]43[C@@H]65)C2)C1 (stereo not given in full) in this assay? label 1

Could you please tell me the result logged for CC(C)C(=O)OC[C@H]1O[C@H](O[C@H]2O[C@H](CO)[C@@H](O)[C@H](O)[C@H]2O)[C@H](O)[C@@H](O)[C@@H]1O in this assay? label 0

Could you please tell me the result logged for c1cc(OCCCN2CCCCC2)ccc1CN1CCCCC1 in this assay? label 0

Could you please tell me the result logged for CC(C)S(=O)(=O)N[C@H]1CCOC[C@@H]1c1ccc(-c2ccc(C#N)s2)cc1 in this assay? label 0

Could you please tell me the result logged for COc1cc2c(cc1OC)-c1[nH]nc(Nc3cccc(F)c3)c1C2 in this assay? label 1

Could you please tell me the result logged for COc1ccc(CN2C(=O)C(=O)c3cc(S(=O)(=O)N4CCC[C@H]4COc4cccnc4)ccc32)cc1 in this assay? label 0
